System: Saccharomyces cerevisiae
Experiment: protein stability index of tFT-peptide fusion (C-terminal peptide) (PSI (0-1 scale)); higher = more stable (slower turnover)
Conditions: genetic background: das1 deletion; temperature: 30 C
Assign protein stability index to each entry below.
Give bare numbers.

Record protein stability index per entry; entries follow.
1. EDGAVGNLFDDN [MSN5 C-terminal 12 aa]
2. FHHMLIFIILKL [PRM2 C-terminal 12 aa]
3. TNDSFNIVALTP [PRP19 C-terminal 12 aa]
4. LSVTLGEGKYHH [CSG2 C-terminal 12 aa]
5. KVTKAAQKAAKK [YPR080W; YBR118W C-terminal 12 aa]

Response:
0.681
0.203
0.688
0.685
0.678

Could you tell me protein stability index for each of these sequences? They are listed below.
1. MELWYTCLSKNL [YCR050C C-terminal 12 aa]
2. FQREQVAKGGLL [CHL4 C-terminal 12 aa]
3. SSLPYDILPALL [YGL199C C-terminal 12 aa]
4. GSVCFIMDYFTG [VPS62 C-terminal 12 aa]
5. VNADDEIENNVD [AMN1 C-terminal 12 aa]

Response:
1. 0.694
2. 0.717
3. 0.703
4. 0.706
5. 0.674

Count: 3. Required value per item: protein stability index.
1. ALKLRALEKLSF [NCS6 C-terminal 12 aa]
2. VFTRLYSTLWSY [YDR149C C-terminal 12 aa]
3. SFFLRNFFPSLF [YDL159W-A C-terminal 12 aa]

Response:
0.711
0.687
0.756

---

Test system: Saccharomyces cerevisiae
Assay: protein stability index of tFT-peptide fusion (C-terminal peptide) (PSI (0-1 scale)); higher = more stable (slower turnover)
Details: genetic background: das1 deletion; temperature: 37 C
Please provide measured protein stability index for the entries that follow.
Numbers only.

Lab note: each sequence below needs its protein stability index filled in.
1. WFVFVFCSPRSS
2. VFSFWVLCEVSV
3. FSVRLCLFVWGC

Response:
1. 0.65
2. 0.0841
3. 0.468

Kindly give each listed record's protein stability index.
1. RAFFLLYCTLWA
2. QLGGKVGNCHVV
3. YNTVALRITLIT
4. RGRLKSSYFILF
5. RPGRWFCFLYCV
6. SFCVLLQFCVLV
7. LMLGARVSRRIH

Response:
1. 0.266
2. 0.732
3. 0.502
4. 0.751
5. 0.532
6. 0.461
7. 0.707

I have 2 sequences here; please give me protein stability index for each one.
1. PRFCVYARFHNT
2. FLFFRFLVGCCF

Response:
1. 0.722
2. 0.455

Hi team, please reply with protein stability index for each item in this list.
1. LAPSRNRSVWLV
2. YPLISVSLPCPS
3. SLVIVLPALIFL
4. FFIMFFDFWGYF

Response:
0.74
0.585
0.569
0.624

---

System: Saccharomyces cerevisiae
Experiment: protein stability index of tFT-peptide fusion (C-terminal peptide) (PSI (0-1 scale)); higher = more stable (slower turnover)
Settings: genetic background: wild type; temperature: 30 C
readout: protein stability index

Field: example entries. Status: answers known.
recordSequence: NKIANFVKNAKK [TRP1 C-terminal 12 aa]
result: 0.701
//
recordSequence: FGGVRSPKMRRL [MRPS18 C-terminal 12 aa]
result: 0.681

Please look at the items below and tell me protein stability index for each one, in order.
1. LFYNIRCLGKQF [YAR030C C-terminal 12 aa]
2. NEDSMEIDDDLD [HSP104 C-terminal 12 aa]
3. PKSFVPRDIEKK [YGR265W C-terminal 12 aa]
4. TSASSNLDDSFS [YPR002C-A C-terminal 12 aa]
5. EILSMPDLSKYQ [SDH5 C-terminal 12 aa]

Response:
1: 0.397; 2: 0.665; 3: 0.701; 4: 0.7; 5: 0.704

Give protein stability index for each listed item.
1. SFYDNSLQTWIV [RRT2 C-terminal 12 aa]
2. LSLTLVSIIKTA [COG2 C-terminal 12 aa]
3. KMQGKYIKKKAM [YNR001W-A C-terminal 12 aa]

Response:
0.752
0.193
0.385

Hi there! I need protein stability index for each item below, if you can.
1. KKRISEKQHFIE [AMF1 C-terminal 12 aa]
2. APVAAGESESSL [SRO9 C-terminal 12 aa]

Response:
1: 0.633; 2: 0.687
